# measurement_target: B1R receptor of the rat (rB1R) (Rattus norvegicus, UniProt P97583)
# Construct: expressed in transfected cells; host or cells: CHO K1 cells
# Sequence (P97583 1-337): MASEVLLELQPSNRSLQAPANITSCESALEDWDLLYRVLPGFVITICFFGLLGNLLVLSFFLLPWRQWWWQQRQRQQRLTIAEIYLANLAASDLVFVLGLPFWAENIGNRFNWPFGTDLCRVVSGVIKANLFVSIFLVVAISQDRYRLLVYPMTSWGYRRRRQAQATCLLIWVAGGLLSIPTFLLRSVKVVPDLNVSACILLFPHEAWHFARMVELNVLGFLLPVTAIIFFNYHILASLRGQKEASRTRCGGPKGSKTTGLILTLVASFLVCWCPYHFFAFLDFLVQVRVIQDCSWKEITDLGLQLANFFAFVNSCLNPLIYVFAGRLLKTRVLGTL
# test: Functional investigation on the bradykinin 1 receptor (B1R), FLIPR Ca2+ assay, rB1R cells
# Type: cell-based
# settings: CHO-K1, 10 μM test substance; CHO K1 cells with rat B1R; agonist Des-Arg9 bradykinin; % of maximum achievable inhibition; read-out: B1R antagonism, rat [10 μM] % inhibition
parameter: inhibition at 10 µM (%)

// below: answered molecules
molecule: COc1cc(C)c(S(=O)(=O)Nc2cccc3ccn(CC(=O)N4CCN(c5ccc(F)cc5)CC4)c23)c(C)c1
parameter: inhibition at 10 µM
observed: 59
--
molecule: Cc1cc(S(=O)(=O)Nc2cccc3ccn(CC(=O)N(C)CCCN4CCC(c5cccs5)(N(C)C)CC4)c23)c(C)cc1Cl
parameter: inhibition at 10 µM
observed: 81
--
molecule: COc1cc(C)c(S(=O)(=O)Nc2cccc3ccn(CC(=O)N4CCC(c5cccs5)(N(C)C)CC4)c23)c(C)c1
parameter: inhibition at 10 µM
observed: 86
--
molecule: Cc1cc(S(=O)(=O)Nc2cccc3ccn(CCC(=O)N4CCC(N5CCN(C)CC5)CC4)c23)c(C)cc1Cl
parameter: inhibition at 10 µM
observed: 79
--
molecule: COc1cc(C)c(S(=O)(=O)Nc2ccc3ccn(CC(=O)N4CCC5(CCN(Cc6ccccc6)C5)C4)c3c2)c(C)c1 (stereo not shown)
parameter: inhibition at 10 µM
observed: 69

A = COc1cc(C)c(S(=O)(=O)Nc2cccc3ccn(CC(=O)N(C)CCCN4CCN(c5ccncc5)CC4)c23)c(C)c1
B = COc1cc(C)c(S(=O)(=O)Nc2cccc3ccn(CC(=O)N4CCC5(CC4)C(=O)NCN5c4ccccc4)c23)c(C)c1
Quick one: lower inhibition at 10 µM, A or B ? Response format: the label of the selected entry. B
(B: 62%, A: 101%)

---

# measurement_target: human B1R receptor (hB1R) (Homo sapiens, UniProt P46663)
# Construct: expressed in transfected cells; host or cells: CHO K1 cells
# Sequence (P46663 whole entry): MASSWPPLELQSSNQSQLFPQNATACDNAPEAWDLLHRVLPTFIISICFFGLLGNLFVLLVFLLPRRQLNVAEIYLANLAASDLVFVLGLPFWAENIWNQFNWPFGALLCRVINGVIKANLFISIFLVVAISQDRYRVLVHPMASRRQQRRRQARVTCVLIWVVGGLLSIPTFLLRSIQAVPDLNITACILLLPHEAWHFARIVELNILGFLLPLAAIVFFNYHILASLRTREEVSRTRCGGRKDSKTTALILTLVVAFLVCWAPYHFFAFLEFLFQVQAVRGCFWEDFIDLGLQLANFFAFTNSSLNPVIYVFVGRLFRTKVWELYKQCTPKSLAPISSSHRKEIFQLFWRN
# test: Functional investigation on the bradykinin 1 receptor (B1R), FLIPR Ca2+ assay, hB1R cells
# Format: cell-based
# settings: CHO-K1, 10 μM test substance; CHO K1 cells with human B1R; agonist Lys-Des-Arg9 bradykinin; % of maximum achievable inhibition; read-out: B1R antagonism, human [10 μM] % inhibition
# Excerpt: The agonistic or antagonistic action of substances can be quantified on the bradykinin 1 receptor (B1R) of the human and rat species with ectopically expressing cell lines (CHO K1 cells) and with the aid of a Ca^2+-sensitive dye (Fluo-4) using a fluorescent imaging plate reader (FLIPR). […] The agonistic or antagonistic action of substances can be determined on the bradykinin 1 receptor (B1R) of the human and rat species with the following assay. […]
parameter: inhibition at 10 µM (%)

test_smiles: Cc1ccc2n1C(=O)N(c1ccc3ccn(CC(=O)N4CCC5(CC4)CCN(c4ccncc4)CC5)c3c1)C2
observed: 96

P = O=C(Cn1ccc2cccc(N3Cc4cccc(Cl)c4C3=O)c21)N1CCC2(CC1)CCN(c1ccncc1)CC2
Q = Cn1c2c(c3c(Cl)cccc31)C(=O)N(c1ccc3ccn(CC(=O)N4CCC5(CC4)CCN(c4ccncc4)CC5)c3c1)C2
Of the two listed items, which has the higher inhibition at 10 µM? First: P Second: Q Response format: the label of the selected entry. Q

---

# measurement_target: B1R receptor of the rat (rB1R) (Rattus norvegicus, UniProt P97583)
# Construct: expressed in transfected cells; host or cells: CHO K1 cells
# test: Functional investigation on the bradykinin 1 receptor (B1R), FLIPR Ca2+ assay, rB1R cells
# Format: cell-based
# settings: CHO-K1, 10 μM test substance; CHO K1 cells with rat B1R; agonist Des-Arg9 bradykinin; % of maximum achievable inhibition; read-out: B1R antagonism, rat [10 μM] % inhibition
parameter: inhibition at 10 µM (%)

compound: COc1cc(C)c(S(=O)(=O)Nc2cccc3ccn(CC(=O)NC4CCC(c5ccccc5)(N5CCC5)CC4)c23)c(C)c1 (stereo not shown)
unit_text: %
inhibition at 10 µM: 52

compound: COc1cc(C)c(S(=O)(=O)Nc2cccc3ccn(CC(=O)NCCC4CCN(c5ccncc5)CC4)c23)c(C)c1
unit_text: %
inhibition at 10 µM: 97

1 = COc1cc(C)c(S(=O)(=O)Nc2ccc3ccn(CC(=O)N4CC5CC4CN5Cc4ccc(F)cc4)c3c2)c(C)c1 (stereo not shown)
2 = COc1cc(C)c(S(=O)(=O)Nc2ccc3ccn(CCC(=O)N(C)CCN4CCC(c5cccc(F)c5)(N5CCN(C)CC5)CC4)c3c2)c(C)c1
Of the two listed items, which has the higher inhibition at 10 µM? First: 1 Second: 2 Response format: the label of the selected entry. 2
(2: 103%, 1: 71%)

P = COc1cc(C)c(S(=O)(=O)Nc2cccc3ccn(CC(=O)N4CCC5(CC4)CCN(c4ccc(F)cc4)C5=O)c23)c(C)c1
Q = O=C(CCn1ccc2ccc(N3Cc4cccc(Cl)c4C3=O)cc21)N1CCN(c2ccncc2)CC1
Of the two listed items, which has the higher inhibition at 10 µM? First: P Second: Q Response format: the label of the selected entry. Q
(Q: 100%, P: 58%)

---

# measurement_target: B1R receptor of the rat (rB1R) (Rattus norvegicus, UniProt P97583)
# Construct: expressed in transfected cells; host or cells: CHO K1 cells
# test: Functional investigation on the bradykinin 1 receptor (B1R), FLIPR Ca2+ assay, rB1R cells
# Format: cell-based
# settings: CHO-K1, 10 μM test substance; CHO K1 cells with rat B1R; agonist Des-Arg9 bradykinin; % of maximum achievable inhibition; read-out: B1R antagonism, rat [10 μM] % inhibition
parameter: inhibition at 10 µM (%)

// below: answered molecules
molecule: COc1cc(C)c(S(=O)(=O)Nc2ccc3ccn(CC(=O)N4CCC(N5CCN(C)CC5)CC4)c3c2)c(C)c1
observed: 70
--
molecule: COc1cc(C)c(S(=O)(=O)Nc2cccc3ccn(CC(=O)N4CCC5(CC4)CC(c4ccncc4)=NO5)c23)c(C)c1
observed: 96

a = CN(CCCN1CCC(c2ccccc2)(N(C)C)CC1)C(=O)Cn1ccc2cccc(NS(=O)(=O)c3cccc4ccccc34)c21
b = Cn1c2c(c3c(Cl)cccc31)C(=O)N(c1ccc3ccn(CC(=O)N4CCC5(CC4)CCN(c4ccncc4)CC5)c3c1)C2
Quick one: lower inhibition at 10 µM, a or b ? Response format: the label of the selected entry. a

---

# measurement_target: B1R receptor of the rat (rB1R) (Rattus norvegicus)
# Construct: expressed in transfected cells; host or cells: CHO K1 cells
# test: Functional investigation on the bradykinin 1 receptor (B1R), FLIPR Ca2+ assay, rB1R cells
# Assay type: cell-based
# settings: CHO-K1, 10 μM test substance; CHO K1 cells with rat B1R; agonist Des-Arg9 bradykinin; % of maximum achievable inhibition; read-out: B1R antagonism, rat [10 μM] % inhibition
parameter: inhibition at 10 µM (%)

test_smiles: COc1cc(C)c(S(=O)(=O)Nc2ccc3ccn(CC(=O)NCC4CCN(c5ccncc5)CC4)c3c2)c(C)c1
measurement_target: B1R receptor of the rat (rB1R) (Rattus norvegicus)
observed: 65
//
test_smiles: Cc1cc(S(=O)(=O)Nc2ccc3ccn(CC(=O)NCCC4CCN(c5ccncc5)CC4)c3c2)c(C)cc1Cl
measurement_target: B1R receptor of the rat (rB1R) (Rattus norvegicus)
observed: 89
//
test_smiles: Cc1cccc2c1C(=O)N(c1ccc3ccn(CC(=O)N4CCC5(CC4)CCN(c4ccncc4)CC5)c3c1)C2
measurement_target: B1R receptor of the rat (rB1R) (Rattus norvegicus)
observed: 102
//
test_smiles: COc1cc(C)c(S(=O)(=O)Nc2cccc3ccn(CCC(=O)N4CCN(C5CCN(C)CC5)CC4)c23)c(C)c1
measurement_target: B1R receptor of the rat (rB1R) (Rattus norvegicus)
observed: 86
//
test_smiles: O=C(Cn1ccc2ccc(N3Cc4cccc(Cl)c4C3=O)cc21)NCC1CCN(c2ccncc2)CC1
measurement_target: B1R receptor of the rat (rB1R) (Rattus norvegicus)
observed: 81

I = O=C(Cn1ccc2ccc(NS(=O)(=O)c3ccccc3C(F)(F)F)cc21)N1CCC2(CC1)CCN(c1ccncc1)CC2
II = COc1cc(C)c(S(=O)(=O)Nc2ccc3ccn(CCC(=O)NCCN4CCC(c5cccs5)(N(C)C)CC4)c3c2)c(C)c1
Of the two listed items, which has the higher inhibition at 10 µM? First: I Second: II Response format: the label of the selected entry. I
(I: 91%, II: 59%)
